Taken from the supplement of paper PMC6555819.

Test system: LXRa:RXRa (NR concentration 270 nM, RXRa partner concentration 90 nM)
Test summary: PBM binding z-score (relative to random genomic background probes); higher = stronger binding; sequences stand for … in GC…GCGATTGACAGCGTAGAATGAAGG
Records here are stratified by PBM binding z-score; strata: low = under 0.8, mid = from 0.8 up to 4, high = 4 and over

| Residue codes | Discrete label |
| --- | --- |
| CCTTACGGGTCACGAGCTTATAGCACGACGAGCG | high |
| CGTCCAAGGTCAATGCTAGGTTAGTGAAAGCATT | high |
| ACAGACAGGTGAGTGCAGGTAACTCAGCTGGACG | low |
| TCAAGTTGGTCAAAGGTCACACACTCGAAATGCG | high |
| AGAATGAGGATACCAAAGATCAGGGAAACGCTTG | low |

The entry to classify is `TAACCTAGGTCAGATCGGGCCAGTATACGCTATA` ; which class holds it? mid

The entry to classify is `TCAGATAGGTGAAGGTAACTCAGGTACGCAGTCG` ; which class holds it? mid

The entry to classify is `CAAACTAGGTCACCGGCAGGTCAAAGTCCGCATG` ; which class holds it? high

====

# key: entry, value: PBM binding z-score
System: RARb homodimer (NR concentration 270 nM)
Test summary: PBM binding z-score (relative to random genomic background probes); higher = stronger binding; sequences stand for … in GC…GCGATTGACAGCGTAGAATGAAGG
Please state the value as a number alone, without comment.

These solved cases illustrate the format of a correct answer.
| Residue codes | PBM binding z-score |
| --- | --- |
| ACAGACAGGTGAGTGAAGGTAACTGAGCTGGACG | 0.0356 |
| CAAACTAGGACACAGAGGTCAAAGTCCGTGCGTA | 4.68 |
| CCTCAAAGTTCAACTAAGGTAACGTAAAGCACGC | 4.3 |
| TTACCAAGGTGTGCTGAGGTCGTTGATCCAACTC | 1.18 |
| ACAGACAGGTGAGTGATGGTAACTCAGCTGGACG | -0.167 |
| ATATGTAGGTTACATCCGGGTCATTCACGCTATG | 2.82 |

I am curious: what PBM binding z-score value has been reported for `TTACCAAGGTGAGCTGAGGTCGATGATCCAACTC` ? 1.56

====

System: PXR homodimer (NR concentration 270 nM)
Test summary: PBM binding z-score (relative to random genomic background probes); higher = stronger binding; sequences stand for … in GC…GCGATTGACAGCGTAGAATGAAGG
Records here are stratified by PBM binding z-score; strata: label 0 = under -0.02, label 1 = from -0.02 up to 0.6, label 2 = 0.6 and over

Some solved entries appear below for comparison.
| Residue codes | Discrete label |
| --- | --- |
| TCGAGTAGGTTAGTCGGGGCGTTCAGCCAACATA | label 0 |
| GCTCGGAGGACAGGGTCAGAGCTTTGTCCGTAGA | label 0 |
| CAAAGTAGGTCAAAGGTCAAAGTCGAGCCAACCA | label 2 |

The entry to classify is `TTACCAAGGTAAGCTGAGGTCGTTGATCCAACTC` ; which class holds it? label 1

The entry to classify is `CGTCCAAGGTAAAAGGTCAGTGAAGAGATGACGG` ; which class holds it? label 1

The entry to classify is `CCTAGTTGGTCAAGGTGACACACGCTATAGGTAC` ; which class holds it? label 1
